Reference source: patent US20170240556A1

- measurement-target: Casein kinase 1 epsilon (CSKN1E) (Homo sapiens)
- Sequence (P49674 whole entry): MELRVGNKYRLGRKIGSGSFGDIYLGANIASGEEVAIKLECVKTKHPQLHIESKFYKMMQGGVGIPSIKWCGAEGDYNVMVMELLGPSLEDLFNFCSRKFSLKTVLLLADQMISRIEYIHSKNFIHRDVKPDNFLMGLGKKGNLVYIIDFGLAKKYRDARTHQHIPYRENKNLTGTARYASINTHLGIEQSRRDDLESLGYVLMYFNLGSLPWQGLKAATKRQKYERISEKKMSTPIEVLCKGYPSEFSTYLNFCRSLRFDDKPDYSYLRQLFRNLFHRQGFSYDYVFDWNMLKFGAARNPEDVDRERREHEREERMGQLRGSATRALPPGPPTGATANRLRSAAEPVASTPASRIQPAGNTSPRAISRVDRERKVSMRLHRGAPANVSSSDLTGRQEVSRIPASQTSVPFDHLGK
- method-description: Casein kinase assay, CK1 epsilon
- conditions: recombinant CSKN1E 30 nM, ATP 10 μM
readout-label: IC50

// solved cases for IC50 follow
[[record]]
compound = "O=C(Nc1nc2cc3c(cc2[nH]1)OC(F)(F)O3)c1cc(Cl)ccc1O [Compound 86]"
measurement = "> 1 µM"

[[record]]
compound = "O=C(Nc1nc2cc3c(cc2[nH]1)OC(F)(F)O3)c1cc(-c2ccco2)on1 [Compound 143]"
measurement = "0.2 to 1 µM"

[[record]]
compound = "Nc1ncc(Br)nc1C(=O)Nc1nc2cc3c(cc2[nH]1)OC(F)(F)O3 [Compound 22]"
measurement = "> 1 µM"

[[record]]
compound = "O=C(Nc1nc2cc3c(cc2[nH]1)OC(F)(F)O3)c1csc(-n2c(=O)n(CCN3CCOCC3)c3ccccc32)n1 [Compound 98]"
measurement = "> 1 µM"


Look up IC50: O=C(Nc1nc2cc3c(cc2[nH]1)OC(F)(F)O3)c1cscn1 [Compound 44] 0.2 to 1 µM

Sample COc1ccccc1C(=O)Nc1nc(C(=O)Nc2nc3cc4c(cc3[nH]2)OC(F)(F)O4)co1 [Compound 12] — what was its IC50? > 1 µM

Which IC50 value belongs to O=C(Nc1nc2cc3c(cc2[nH]1)OC(F)(F)O3)c1coc(-c2ccc3c(c2)CCO3)n1 [Compound 40] ? > 1 µM

Sample O=C(Nc1nc2cc3c(cc2[nH]1)OC(F)(F)O3)c1nsc(NC(=O)c2ccccc2OC(F)(F)F)n1 [Compound 17] — what was its IC50? < 0.2 µM

* * *

- Tested on: OVCAR3 (ovary)
- method-description: Proliferation Assay
- Assay type: cell-based
- conditions: Homo sapiens, OVCAR-3, 72 h, read-out: IC50 inhibition of cell growth
pIC50: −log10 of the molar value.
readout-label: pIC50

# pIC50 lookup, item "COc1cccc(C(=O)Nc2nc3cc4c(cc3[nH]2)OC(F)(F)O4)c1" ≥ 6.00

* * *

- measurement-target: Casein kinase 1 delta (CSKN1D) (Homo sapiens)
- Sequence (P48730 whole entry): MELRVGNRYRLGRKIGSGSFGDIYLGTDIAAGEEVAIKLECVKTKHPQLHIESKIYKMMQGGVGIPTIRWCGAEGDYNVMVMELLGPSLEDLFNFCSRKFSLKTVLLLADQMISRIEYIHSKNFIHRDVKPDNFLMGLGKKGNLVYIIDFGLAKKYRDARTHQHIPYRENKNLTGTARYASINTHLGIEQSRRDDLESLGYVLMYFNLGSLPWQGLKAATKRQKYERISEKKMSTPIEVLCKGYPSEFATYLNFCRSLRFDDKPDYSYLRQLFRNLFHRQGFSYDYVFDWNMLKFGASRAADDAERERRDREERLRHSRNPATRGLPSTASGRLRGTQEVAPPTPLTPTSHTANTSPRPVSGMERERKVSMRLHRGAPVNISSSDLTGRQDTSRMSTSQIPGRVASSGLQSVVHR
- method-description: Casein kinase assay, CK1 delta
- Assay type: biochemical
- conditions: recombinant CSKN1D 5 nM, ATP 10 μM
pIC50: −log10 of the molar value.
# Lookup of reported pIC50 keyed by entry

Field: example entries. Status: answers known.
[[record]]
molecule = "Cc1cc(C)n(-c2cccc(C(=O)Nc3nc4cc5c(cc4[nH]3)OC(F)(F)O5)c2)n1"
measurement_target = "Casein kinase 1 delta (CSKN1D) (Homo sapiens)"
measurement = "> 6.70"

[[record]]
molecule = "O=C(Nc1nc2cc3c(cc2[nH]1)OC(F)(F)O3)c1ccc(Cl)cc1"
measurement_target = "Casein kinase 1 delta (CSKN1D) (Homo sapiens)"
measurement = "< 6.00"

[[record]]
molecule = "O=C(Nc1nc2cc3c(cc2[nH]1)OC(F)(F)O3)c1cn(-c2ccccc2)nc1C(F)(F)F"
measurement_target = "Casein kinase 1 delta (CSKN1D) (Homo sapiens)"
measurement = "6.00 to 6.70"


If you can, please state the reported pIC50 value of "CN(C)c1cncc(C(=O)Nc2nc3cc4c(cc3[nH]2)OC(F)(F)O4)c1" . > 6.70

What pIC50 value was documented for this molecule, "O=C(Nc1nc2cc3c(cc2[nH]1)OC(F)(F)O3)c1cc(Cl)ccc1O" ? < 6.00

Recorded pIC50 for "Cc1ccc(C(=O)Nc2nc(C(=O)Nc3nc4cc5c(cc4[nH]3)OC(F)(F)O5)ns2)cc1" , please? 6.00 to 6.70

Can you share its pIC50? I mean this molecule: "COc1cc(C(=O)Nc2nc3cc4c(cc3[nH]2)OC(F)(F)O4)ccn1" > 6.70

Could you share which pIC50 value was measured for "NC(=O)c1ccc(C(=O)Nc2nc3cc4c(cc3[nH]2)OC(F)(F)O4)cc1" ? > 6.70
